Reference source: paper PMC3166448

assay-text: Plasma pharmacokinetics after first IPI-504 dose
Type: in vivo, human
condition-details: human, in vivo, 400 mg/m^2
Structures can show the parent of a compound that is named as a salt.
measure: AUC (ng·h/mL)

compound="C=CCNc1c(O)cc2c(O)c1C[C@@H](C)C[C@H](OC)[C@H](O)[C@@H](C)/C=C(\\C)[C@H](OC(N)=O)[C@@H](OC)/C=C\\C=C(/C)C(=O)N2 [IPI-504, retaspimycin hydrochloride]" uom=ng·h/mL reported=26400
